B1: TPR t1 (parent)
chain: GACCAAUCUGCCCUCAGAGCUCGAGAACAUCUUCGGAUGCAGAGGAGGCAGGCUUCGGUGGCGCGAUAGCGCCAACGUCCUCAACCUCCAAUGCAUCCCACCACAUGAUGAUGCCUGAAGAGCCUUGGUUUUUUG

variants of: B1; assay: polymerase ribozyme fitness, log enrichment relative to wild type (log ratio); higher = more active; in vitro selection for triplet polymerase activity
MEASUREMENT_NAME: polymerase ribozyme fitness (log ratio)

change="G36U A50C G60A" reported_measurement=-2
change="G52U G69A C94A C104U A118G" reported_measurement=-5.65
change="A50U G51A C64U C82A A119G" reported_measurement=-0.277
change="A43G G113U" reported_measurement=-2.72
change="C62A U132C" reported_measurement=-0.866
change="A74C G93A" reported_measurement=-0.578
change="U54G G69U G117U" reported_measurement=-3.75
change="C28G G52A C70U C86U C101U G110A U131G" reported_measurement=-2.57
change="C72U U78C C94U" reported_measurement=-0.922
change="G44U A46U U112C" reported_measurement=-0.701
change="A5U A18U C94G A105G C123G" reported_measurement=-6.51
change="U21C G63A" reported_measurement=-0.609
change="C22A C40A G69A C86U C97G C99G U125A" reported_measurement=-6.51
change="C40U G107C U109A" reported_measurement=-6.59
change="C49U G51U G71A C86U" reported_measurement=-7.37
change="G47U C73A U78C C88U A95G" reported_measurement=-4.73
change="C13U C70A A121G" reported_measurement=0.554
change="G61A U78G G107A C114U G117A" reported_measurement=-6.96
change="U9A C70U U78A" reported_measurement=-0.654
change="G71U C101G U106G" reported_measurement=-3.61
change="C8U C20U U38G C62G G113U" reported_measurement=-3.27
change="G52C G120U" reported_measurement=-0.715
change="C8G G47C C85G" reported_measurement=-1.92
change="C11G G120A" reported_measurement=1.51
change="C49A C72A C73U C97G C123A" reported_measurement=-5.81
change="A50U C76G" reported_measurement=-1.31
change="U9C C56G C62G" reported_measurement=-3.04
change="C115U G127C" reported_measurement=-2.76
change="U7A G10U C64G G93A" reported_measurement=-6.26
change="U9G U54G G58C C73U" reported_measurement=-0.715
change="C15A G69U G77U G122A C123A" reported_measurement=-1.41
change="A2U U131G" reported_measurement=-2.07
change="C62U G69C C102G U130G" reported_measurement=-7.34
change="G52A A74U" reported_measurement=-0.719
change="C22U U54G" reported_measurement=-3.24
change="C49U G69U U78C U81A C114G G117U G127U" reported_measurement=-5.33
change="U59A U87A G113U A118G" reported_measurement=-4.7
change="C4G G61C" reported_measurement=-2.88
change="G51C U78C" reported_measurement=-4.89
change="U21A U59A C62A" reported_measurement=-3.07
change="C20A A50G G52A C124A" reported_measurement=-1.12
change="C40U G60C" reported_measurement=-0.857
change="C8G U32A A43U G47U G52C C86A U96A" reported_measurement=-6.26
change="C3U U54C C104A U131C" reported_measurement=-2.52
change="A41G G61U U96A A105U U133C" reported_measurement=-6.14
change="G71A U81C C115U" reported_measurement=-3.59
change="G52C C72U C86U C89U A105U" reported_measurement=-4.77
change="A74U U87G" reported_measurement=0.353
change="G23A G39U C53A G69U G71A C115G G117A" reported_measurement=-4.86
change="C34U C72A C123A" reported_measurement=-5.4
change="G10A G23A" reported_measurement=-4.78
change="A5G A27U A46G" reported_measurement=-2.16
change="C56U G61U" reported_measurement=-2.88
change="C70U U129C" reported_measurement=-0.753
change="A18G C80U U92C G120U U129C U130A" reported_measurement=-6.4
change="C8G C62U C86G G117A A119U" reported_measurement=-0.52
change="G36U C80A U81A A121U U130C" reported_measurement=-0.239
change="A5C A6U A50U C56U A121U" reported_measurement=1.17
change="C12U C20A A74U G128A" reported_measurement=-5.15
change="C72G C101G" reported_measurement=-1.33
change="G51A G122A G135U" reported_measurement=-4.44
change="G47A G120C" reported_measurement=0.156
change="C31A C73U" reported_measurement=-5.76
change="C12G G36U G61U A111C" reported_measurement=0.246
change="A46C G71U U87A C123U U132A" reported_measurement=0.774
change="C72G C82G A105C" reported_measurement=-4.16
change="C11G A37C C88G" reported_measurement=-1.94
change="C53A C114A" reported_measurement=-1.87
change="C12A A46U C72G C114U" reported_measurement=-4.57
change="A74C G120A U132G U134A" reported_measurement=0.272
change="A41G G48U C62A C80U A91U C98U C123A" reported_measurement=-7.74
change="C13G C28G U96A" reported_measurement=-4.5
change="U9C C31A G44A G47U G69U C88U A118U U133G" reported_measurement=-4.68
change="C12U G63A G113A" reported_measurement=-1.59
change="C70U C102A C124G" reported_measurement=-1.09
change="G17C G61U G93U C114A G127U" reported_measurement=-6
change="C62U C80G" reported_measurement=-6.35
change="A37C C76G" reported_measurement=-0.251
change="A16U C124U" reported_measurement=0.484
change="C40A A46G U132A" reported_measurement=-1.49
change="G61U U78G C79U G122U" reported_measurement=0.33
change="C40U G61U C86G" reported_measurement=-2.87
change="C11G A27G C85A U125A" reported_measurement=-2.01
change="A5U C73A G122A U126G" reported_measurement=-2.29
change="U14G A90C" reported_measurement=-3.4
change="G10U C13A A16U G110C U125A" reported_measurement=-6.47
change="C13A U109A G110C G128U" reported_measurement=-3.64
change="C8U G69U" reported_measurement=0.891
change="A6G C88U G113U" reported_measurement=-2.37
change="C13U A29U C56A G65A G77A" reported_measurement=-6.34
change="G58A G63U A118G" reported_measurement=-0.392
